test system: T-47D breast; assay: NCI tumour cell line growth inhibition, 48 h
valueKind: TGI

> print(dat)
                                   molecule  readoutvalue
1  Cn1ccc(=Nc2ccc(NC(=O)c3ccc(N=c4ccn(C)c5ccc([N+](=O)[O-])cc45)cc3)cc2)cc1      > 100 µM
2  Nc1ccc(C#Cc2cncnc2Nc2ccc(OCc3cccc(F)c3)c(Cl)c2)cc1       > 25 µM
3  C=C(CN1CCN(c2cccc(C(F)(F)F)c2)CC1)c1ccc(C(=O)Nc2ccccc2N)cc1       > 50 µM
4  COc1cc(-c2oc3c(OC)c(OC)cc(O)c3c(=O)c2OC)ccc1O       34.4 µM
5                             O=S(=O)(O)CCS      > 100 µM

Prompt: Dear colleague, please send me the reported TGI for C#CC(O)/C=C/CCCCCCC#CC/C=C\CC#CCCCCCC/C=C/C(O)C#C (stereo unspecified) when you can.
Completion: 5.85 µM

Data credit: PubChem BioAssay (NCI)
